Reported values of max activation for individual entries
MEASURED TARGET: Nuclear receptor subfamily 1 group I member 2 (Rattus norvegicus) (UniProt Q9R1A7)
Sequence (Q9R1A7 whole entry, looked up): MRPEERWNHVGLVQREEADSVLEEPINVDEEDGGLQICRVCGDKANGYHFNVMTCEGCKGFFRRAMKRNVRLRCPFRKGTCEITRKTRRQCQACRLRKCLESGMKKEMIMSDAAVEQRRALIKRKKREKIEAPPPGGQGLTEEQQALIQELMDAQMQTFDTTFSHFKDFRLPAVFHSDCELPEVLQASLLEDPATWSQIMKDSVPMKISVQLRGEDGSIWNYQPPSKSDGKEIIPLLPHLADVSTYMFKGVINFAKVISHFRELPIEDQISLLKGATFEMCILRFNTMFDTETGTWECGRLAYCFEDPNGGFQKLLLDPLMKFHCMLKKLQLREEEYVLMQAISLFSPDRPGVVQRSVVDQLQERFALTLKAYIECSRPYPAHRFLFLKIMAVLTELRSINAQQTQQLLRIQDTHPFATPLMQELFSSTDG
MEASUREMENT DESCRIPTION: Rat pregnane X receptor (rPXR) activation by small molecules, qHTS assay (AID 1346983); further: on the % scale 0 is the no-effect control and ±100 the full control effect; nearly all actives have a fitted effect of over 20% in size
COND: rPXR luciferase reporter cells, One-Glo luminescence, 24 h; active compounds read high
Records with an inconclusive call do not appear.
Unit % implied. Number only.

Examples from the recorded data:
CCC1(c2ccccc2)C(=O)NC(=O)NC1=O: -0.894
CCN(Cc1ccc(Cl)nc1)/C(=C/[N+](=O)[O-])NC: -0.716
CN(C)CCc1ccc(O)cc1: -2.69
CN1CCN(C(=O)O[C@H]2c3nccnc3C(=O)N2c2ccc(Cl)cn2)CC1: 2
CCN(CC)C(C)C(=O)c1ccccc1 (stereo unspecified): -2.77

Task: Report its max activation with Nuclear receptor subfamily 1 group I member 2 (Rattus norvegicus) (UniProt Q9R1A7) as the test system: `O=C(CCCN1CCC(n2c(=O)[nH]c3ccccc32)CC1)c1ccc(F)cc1`
Output: -1.58

Task: Lab note: record max activation of COc1ccc2c(c1OC)CN1CCc3cc4c(cc3C1C2)OCO4 (stereo unspecified) tested on Nuclear receptor subfamily 1 group I member 2 (Rattus norvegicus) (UniProt Q9R1A7).
Output: 0.596

Task: Identify measured max activation obtained with Nuclear receptor subfamily 1 group I member 2 (Rattus norvegicus) (UniProt Q9R1A7) for COC(=O)C(c1ccccc1)C1CCCCN1 (stereo unspecified) .
Output: -3.29

Task: Give max activation; test system Nuclear receptor subfamily 1 group I member 2 (Rattus norvegicus) (UniProt Q9R1A7); compound `O=C(O)c1ccc2[nH]cc(CCCCN3CC=C(c4ccccc4)CC3)c2c1`
Output: -0.864

Task: Name the value of max activation reported for `OC(c1ccccc1)(c1ccccc1)C1CCNCC1` when tested on Nuclear receptor subfamily 1 group I member 2 (Rattus norvegicus) (UniProt Q9R1A7).
Output: -4.65

Task: # return max activation for `COc1cc2c(cc1OC)[C@@]13CCN4CC5=CCO[C@H]6CC(=O)N2[C@H]1[C@H]6[C@H]5C[C@H]43` , test system: Nuclear receptor subfamily 1 group I member 2 (Rattus norvegicus) (UniProt Q9R1A7)
Output: -4.15

====

MEASURED TARGET: Thyrotropin receptor (Homo sapiens)
MEASUREMENT DESCRIPTION: qHTS assay to identify small molecule agonists of the thyroid stimulating hormone receptor (TSHR) signaling pathway (AID 1224843); further: nearly all actives have a fitted effect of over 45% in size
COND: TSHR-HEK293 cells, cAMP HTRF, agonist mode, 30 min; series mostly up to 92.4 µM
Results filed as inconclusive are left out. The source made the active and inactive calls. Calls come from the whole dose curve.
Give your call using only these classes: 1 (active), -1 (inactive)

CC(C)[N+](=O)[O-]: -1
Cc1cnc[nH]1: -1
Fc1ccc(C2(Cn3cncn3)OC2c2ccccc2Cl)cc1 (stereo not given): -1
Nc1cnn(-c2ccccc2)c(=O)c1Cl: -1
c1cc2c(c(N3CCNCC3)c1)OCCO2: -1
CNC(=O)Oc1cccc(C(C)C)c1: -1
O=C1OC(=O)C2C1C1(Cl)C(Cl)=C(Cl)C2(Cl)C1(Cl)Cl (stereo not given): -1
C=CC1CC=CCC1 (stereo not given): -1
Cc1cccc(C#N)c1: -1
CCC1(c2ccccc2)C(=O)N=C(O)NC1=O (stereo not given): -1

Task: Any idea what this test logged for `CC(=O)Nc1cc([As](=O)(O)O)ccc1O` ?
Output: -1

Task: Kindly provide the recorded test outcome for the following molecule: `CN1CCC(N(Cc2ccccc2)c2ccccc2)CC1`
Output: 1

Task: What is the recorded call for this molecule in the test? `O=C(Cc1ccccc1)OCc1ccccc1`
Output: -1

Task: Could you please tell me the result logged for `CCCSC(=O)Cl` in this assay?
Output: -1

Task: Returns: the outcome recorded for `O=C(N[C@H]1CN2CCC1CC2)c1cc2ccoc2cn1` in this assay.
Output: -1
